target.entity: DRB1*0901 (human, UniProt P01903 26-216, limits assumed)
test.summary: inhibition of 125I-labelled probe peptide binding to purified HLA class II
endpoint.label: pIC50
A value of pIC50 is the negative decimal logarithm of a concentration given in moles per litre.

response.value for DTFRKLFRVYSNDLR (field: pIC50) = 5.79
